Let's look at some molecules and their measured pIC50 (REN).
- System Under Test: RORγ (UniProt P51449)
- Assay Overview: RORγ Gal4 Reporter Gene Assay in 293T cells (firefly and renilla luciferase)
- Assay type: cell-based, human

>>> print(df.to_string())
                                   molecule  measured_metric  assay_result
0  Cc1c(C(=O)NCCCCCS(C)(=O)=O)cc(-c2cc(C(C)(C)C)c3c(c2)C2(CCO3)CC2)n1CC1CCCCC1 [17/4]      pIC50 (REN)   6.2/6.7/6.7

Kindly review the next molecule as well.
Data request: Quick one: pIC50 (REN) of Cc1c(C(=O)NCC2(C)COC2)cc(-c2cc(C(C)(C)C)cc(C(C)(C)C)c2)n1CC1CCCCC1 [1/2] ?
Data returned: 6.9/7.5/7.4
